All values here come from patent US9597315B2.

# studyTarget: human DA transporter (Homo sapiens)
# Construct: expressed in transfected cells; host or cells: CHO-K1 cells
# Sequence (Q01959 whole entry): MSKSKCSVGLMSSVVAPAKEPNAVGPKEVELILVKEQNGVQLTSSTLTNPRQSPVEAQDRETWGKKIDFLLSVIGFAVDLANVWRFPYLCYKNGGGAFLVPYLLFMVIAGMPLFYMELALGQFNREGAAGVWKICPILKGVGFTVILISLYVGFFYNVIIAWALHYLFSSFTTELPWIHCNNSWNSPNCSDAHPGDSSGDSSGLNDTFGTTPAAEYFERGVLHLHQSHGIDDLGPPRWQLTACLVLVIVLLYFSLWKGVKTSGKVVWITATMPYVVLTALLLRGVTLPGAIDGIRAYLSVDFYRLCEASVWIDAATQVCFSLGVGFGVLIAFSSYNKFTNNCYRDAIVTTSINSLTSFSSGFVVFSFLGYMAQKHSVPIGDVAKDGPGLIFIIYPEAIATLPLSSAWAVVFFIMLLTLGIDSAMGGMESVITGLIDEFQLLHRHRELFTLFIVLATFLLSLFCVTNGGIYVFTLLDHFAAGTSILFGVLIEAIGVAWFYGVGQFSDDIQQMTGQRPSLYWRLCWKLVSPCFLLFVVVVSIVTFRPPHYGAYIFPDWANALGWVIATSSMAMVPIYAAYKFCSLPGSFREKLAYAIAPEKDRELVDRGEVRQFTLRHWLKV
# experimentalDetails: Inhibition of [3H]DA uptake in cells expressing the recombinant human DA transporter
# Type: cell-based
# conditionDetails: CHO-K1 cells expressing the DA transporter
Mark Criterion met only for IC50 values smaller than 200 nM; exact matches and larger values are Criterion not met.

1) c1ccc2sc([C@@]34CNC[C@H]3C4)cc2c1; Criterion met
2) CCN1CC2CC2(c2ccc3c(ccn3C)c2)C1 (centres unmarked); Criterion not met
3) CN1C[C@H]2C[C@@]2(c2cc3ccccc3s2)C1; Criterion not met
4) c1ccc2sc(C34CNCC3C4)cc2c1 (centres unmarked); Criterion met
5) CN1CC2CC2(c2coc3ccccc23)C1 (centres unmarked); Criterion not met
6) CN1CC2CC2(c2cc3ccccc3o2)C1 (centres unmarked); Criterion not met
7) c1ccc2sc([C@]34CNC[C@H]3C4)cc2c1; Criterion met
8) CN1CC2CC2(c2cc3ccccc3s2)C1 (centres unmarked); Criterion met
9) CN1CC2CC2(c2ccc3c(ccn3C)c2)C1 (centres unmarked); Criterion not met
10) c1ccc2c(C34CNCC3C4)coc2c1 (centres unmarked); Criterion not met
